system: Leishmania donovani; assay: Antileishmanial activity against Leishmania donovani MHOM/IN/80/Dd8 promastigotes harboring luciferase reporter gene after 72 hrs by Steady-Glo luminescence assay; format: functional, organism-based; settings: MHOM/IN/80/Dd8, 72 h
Label key: 1 (yes) means IC50 under 5 µM; 0 (no) means IC50 of 5 µM or more.

| compound | measured.on | assigned.category |
| --- | --- | --- |
| CC(C)(C)n1nnnc1C(c1ccc([N+](=O)[O-])cc1)N1CCc2c([nH]c3ccccc23)C1 (centres undefined) | Leishmania donovani | 1 (yes) |
| COc1cc(C(c2nnnn2C(C)(C)C)N2CCc3c([nH]c4ccccc34)C2)cc(OC)c1OC (centres undefined) | Leishmania donovani | 0 (no) |
| COc1ccc(C(c2nnnn2C2CCCCC2)N2CCc3c([nH]c4ccccc34)C2)cc1 (centres undefined) | Leishmania donovani | 0 (no) |
| CC(C)(C)n1nnnc1C(c1ccc(F)cc1)N1CCc2c([nH]c3ccccc23)C1 (centres undefined) | Leishmania donovani | 1 (yes) |
| Brc1ccc(C(c2nnnn2C2CCCCC2)N2CCc3c([nH]c4ccccc34)C2)cc1 (centres undefined) | Leishmania donovani | 0 (no) |
| CC(C)(C)n1nnnc1C(c1ccc(Br)cc1)N1CCc2c([nH]c3ccccc23)C1 (centres undefined) | Leishmania donovani | 1 (yes) |
| N#Cc1ccc(C(c2nnnn2C2CCCCC2)N2CCc3c([nH]c4ccccc34)C2)cc1 (centres undefined) | Leishmania donovani | 0 (no) |

Turning now to a further record.
Task: Lab log: compare recorded IC50 with 5 µM; is it strictly lower for CC(C)(C)n1nnnc1C(c1ccc(C#N)cc1)N1CCc2c([nH]c3ccccc23)C1 (centres undefined) ?
Result: 1 (yes)
